TARGET: T1, EphB4 ectodomain fused to human Fc, carboxy-terminal hexahistidine tag (human)
T1 chain: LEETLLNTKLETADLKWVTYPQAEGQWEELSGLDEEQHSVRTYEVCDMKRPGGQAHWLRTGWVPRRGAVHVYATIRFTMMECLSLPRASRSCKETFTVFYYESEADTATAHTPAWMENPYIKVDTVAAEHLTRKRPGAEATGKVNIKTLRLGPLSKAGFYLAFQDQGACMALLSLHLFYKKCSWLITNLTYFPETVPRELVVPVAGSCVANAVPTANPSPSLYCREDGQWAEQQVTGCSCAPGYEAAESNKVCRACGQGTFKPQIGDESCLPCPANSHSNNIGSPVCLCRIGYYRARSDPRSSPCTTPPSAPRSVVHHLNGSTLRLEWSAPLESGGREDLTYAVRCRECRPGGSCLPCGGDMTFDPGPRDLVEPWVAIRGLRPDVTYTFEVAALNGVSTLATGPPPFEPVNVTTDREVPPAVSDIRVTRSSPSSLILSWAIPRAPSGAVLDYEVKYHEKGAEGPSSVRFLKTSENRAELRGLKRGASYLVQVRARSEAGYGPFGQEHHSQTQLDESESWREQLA
METHOD_SUMMARY: inhibition of ephrin-B2 AP binding to immobilized EphB4 ectodomain Fc; biotinylated peptide
pIC50: −log10 of the molar value. No end group written: not given here.
binders and their reported pIC50

Below, 3 binders whose answers are already recorded.
NPVIGPIQRAWTGSGS (also: C-terminal biotin on linker (form not given here)) [NPVI peptide, synthetic, biotinylated] :: < 3.30
DHNHNLYNPWRLGSGS (also: C-terminal biotin, via GSGSK Lys side chain or biotinyl-ethylenediamine, not settled) [DHNH peptide, synthetic, biotinylated] :: ~3.70
TNYLFSPNGPIAGSGS (also: C-terminal biotin on linker (form not given here), also called biotinylated TNYL) [TNYL peptide, synthetic, biotinylated] :: ~4.30

Can you look up the measured pIC50 of DALNDWLLFRPWGSGS (also: C-terminal biotin, via GSGSK Lys side chain or biotinyl-ethylenediamine, not settled) [DALN peptide, synthetic, biotinylated] for me?
< 4.00
